Data provenance is PubChem BioAssay (NCI).

# assay: NCI Yeast Anticancer Drug Screen. Data for the CLN2oe strain (AID 163);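 further: 0% = growth of vehicle-only control cultures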
# test-conditions: S. cerevisiae CLN2oe strain, at 1.2 µM, hits give high values
The panel holds about 79,000 compounds, 15% with a hit somewhere; the sample as a whole holds those more often.
attribute-measured: growth inhibition (%)
Note: unit % is implicit; provide only the numeric part.

Record excerpt, results attached:
>  <molecule>
N#C/C(=C\c1ccccc1)c1ccccc1F

>  <growth inhibition / %>
13

$$$$
>  <molecule>
CCC(=O)Oc1ccc(/C=N/NC(N)=S)nc1

>  <growth inhibition / %>
-5

$$$$
>  <molecule>
Cc1cc(O)c2c(c1O)C(=O)C13C(=C2O)C(=O)C2C(O)C1C1C(O)C3C(=O)C3=C(O)c4c(O)cc(C)c(O)c4C(=O)C321 (configuration not stated)

>  <growth inhibition / %>
18

$$$$
>  <molecule>
CC(=O)N1C(=O)/C(=C\C(=O)c2ccc([N+](=O)[O-])cc2)c2ccccc21

>  <growth inhibition / %>
-31

$$$$
>  <molecule>
Cc1ccc(Nc2n[nH]c(=S)s2)cc1

>  <growth inhibition / %>
11

$$$$

Now take the following molecule into account.
The molecule `O=Nc1ccc(Nc2ccccc2)cc1` showed growth inhibition equal to -44

---

# assay: NCI Yeast Anticancer Drug Screen. Data for the bub3 strain (AID 167)
# test-conditions: S. cerevisiae bub3 mutant strain, at 3.7 µM, hits give high values
Compounds without any hit were thinned out: in the full panel of roughly 79,000, 15% have a hit.
Each entry below carries its recorded growth inhibition.
Give just the numeric value; % need not be written.

Reference set (4 entries):
>  <compound>
Nc1ccc2c(c1)sc1ccccc12

>  <growth inhibition, %>
-4

$$$$
>  <compound>
Nc1nc2c(c(=O)[nH]1)NC(CCNc1ccc(C(=O)O)cc1)CN2 (stereo not given)

>  <growth inhibition, %>
2

$$$$
>  <compound>
OC(CN1CCCCC1)c1cc(Cl)c(Cl)c(Cl)c1 (stereo not given)

>  <growth inhibition, %>
9

$$$$
>  <compound>
CC(=O)Oc1ccc(N2C(=O)C3c4[nH]c5ccccc5c4C4CCC(C(C)(C)C)CC4C3C2=O)cc1 (stereo not given)

>  <growth inhibition, %>
64

$$$$

Note to self: growth inhibition recorded for `CN(NC(=O)/C(=C/c1ccc(O)cc1)NC(=O)c1ccccc1)c1ccnc2cc(Cl)ccc12` was 4

growth inhibition recorded for this compound, `CCCCCCCCCCCCCCCCCCNC(=S)/N=C\C1=C(O)c2ccccc2C1=O` , is -9

Reported growth inhibition ( `C=C(C)[C@@H]1CCc2c(O)c(O)c(=O)cc(C)c2C1` ) = 23

GET /value?item= `Cc1cc(Cl)ccc1NC(=O)/C(Cl)=C1/Sc2ccccc2NC1=O` &field=growth inhibition returns -2

The recorded growth inhibition for entry Cc1cc(O)c2c(c1O)C(=O)C13C(=C2O)C(=O)C2C(O)C1C1C(O)C3C(=O)C3=C(O)c4c(O)cc(C)c(O)c4C(=O)C321 (stereo not given) equals 4

What the record says about `Cc1ccccc1NC(=O)Cc1csc(N/N=C2\NC(=O)/C(=C/c3cccc([N+](=O)[O-])c3)S2)n1` : growth inhibition is -1

---

# assay: NCI Yeast Anticancer Drug Screen. Data for the mec2-1 strain (AID 157)
# test-conditions: S. cerevisiae mec2-1 strain, at 11.0 µM
This is part of a sample that, as a whole, favours compounds with a hit. Of some 79,000 tested, about 15% had one in any assay. The source made the active and inactive calls. Rule as the data show it: active = growth inhibition above about 70%; inactive = the rest.
Return exactly one item of Yes (active), No (inactive)

Look over these answered cases.
>  <compound>
OCCN(CCO)c1ccc2c(c1)Cc1ccccc1-2

>  <discrete-label>
No

$$$$
>  <compound>
O=C1c2cccc3cc([N+](=O)[O-])cc(c23)C(=O)N1CCN1CCCC1

>  <discrete-label>
No

$$$$
>  <compound>
COc1cc(/C=C/c2sc3ccccc3[n+]2C)ccc1N(C)C

>  <discrete-label>
No

$$$$
>  <compound>
C/C(=N\NC(=S)NC1CCCC1)c1ccccn1

>  <discrete-label>
Yes

$$$$
>  <compound>
O=Nn1c2ccccc2c2cc([N+](=O)[O-])ccc21

>  <discrete-label>
No

$$$$
>  <compound>
S=c1[nH]nc(-c2ccc(Cl)cc2)s1

>  <discrete-label>
No

$$$$

Field: outcome | Entry: `Cc1ccc(S(=O)(=O)N/N=C/C2(c3ccccc3)c3ccccc3-c3ccccc32)cc1`
No

I would be grateful if you could indicate the recorded call for `CCc1[nH]nc(C(N)=O)c1N=NN(C)C` .
No

For `O=C1CC(=O)N(C2CCCCC2)C(=O)N1c1ccccc1S(=O)(=O)Oc1ccccc1` , what call appears in the results of this test?
No

Outcome logged for CCN(CC)CC(O)C1CCC(c2ccccc2)CC1 (centres undefined) in this assay:
No

Per the assay record, what outcome was assigned to `Clc1c(Cl)c(Cl)c2n[nH]nc2c1Cl` ?
No

Status in this test for `CCc1nc(N)nc(N)c1-c1ccc(NCCCCCCN)c([N+](=O)[O-])c1` ?
No

Called result for `COc1ccc(/C(C#N)=C/c2ccc(OC)c(OC)c2)cc1`
No

Any idea what this test logged for `O=Cc1coc2ccccc2c1=O` ?
No

Any idea what this test logged for `c1ccc2c(c1)Cn1c-2nc2ccccc21` ?
No

Write down the call the test reported for this compound. Item: `S=c1[nH]c2c(Cl)c(Cl)c(Cl)c(Cl)c2[nH]1`
No

What is the recorded call for this compound in the test? `C/C(=N\NC(=S)NNC(=S)N(C)c1ccccc1)c1ccccn1`
Yes

Assay result, entry `CC(=O)Oc1ccc(C(=O)c2ccccc2)c(O)c1` — outcome?
No

Dear colleague, could you share the recorded outcome for O=S1(=O)c2ccccc2N=C(c2ccccc2Cl)CC1c1ccc(F)cc1 (centres undefined) when you have a moment?
No

Dear all, I need the recorded test outcome for CC1(C)C(C=O)=CCC1CC(N)=O (centres undefined) , thank you.
No

Lab log entry: `O=C1CSC(=S)N1Cc1ccc(Cl)cc1Cl` — outcome as called in the assay?
Yes

Outcome? `OB(O)c1ccccc1C#Cc1ccccc1B(O)O`
No

// param item: `Nc1cc(S(N)(=O)=O)ccc1SSc1ccc(S(N)(=O)=O)cc1N` ; yields the recorded call
No

Entry `O=C(CNS(=O)(=O)Cc1ccccc1)NNc1ccccc1` : call = ?
No
